// provenance: ChEMBL document CHEMBL1149639

System: DU-145
assay-overview: Cytotoxicity against human DU145 cells
Type: functional
reported-conditions: read-out: ED50 (the source's name)
Output Fulfilled for records whose EC50 is lower than 4 µM, Not fulfilled for records at or above 4 µM.

Prompt line: Dear reviewer, please state whether COc1ccc(/C=C/C(=O)c2ccccc2)cc1OC(=O)[C@@]1(C)CC[C@]2(C)CC[C@]3(C)C(=CC(=O)[C@@H]4[C@@]5(C)CC[C@H](O)C(C)(C)[C@@H]5CC[C@]43C)[C@@H]2C1 has EC50 strictly beneath 4 µM.
Response line: Not fulfilled

Prompt line: Dear reviewer, please state whether COc1cc(/C=C/C(C)=O)ccc1O [DEHYDROZINGERONE] has EC50 strictly beneath 4 µM.
Response line: Not fulfilled

Prompt line: Dear reviewer, please state whether CC(=O)/C=C/c1cccc(F)c1OC(=O)[C@@]1(C)CC[C@]2(C)CC[C@]3(C)C(=CC(=O)[C@@H]4[C@@]5(C)CC[C@H](O)C(C)(C)[C@@H]5CC[C@]43C)[C@@H]2C1 has EC50 strictly beneath 4 µM.
Response line: Fulfilled

Prompt line: Dear reviewer, please state whether COc1ccc(/C=C/C(C)=O)c(OC(=O)[C@@]2(C)CC[C@]3(C)CC[C@]4(C)C(=CC(=O)[C@@H]5[C@@]6(C)CC[C@H](O)C(C)(C)[C@@H]6CC[C@]54C)[C@@H]3C2)c1 has EC50 strictly beneath 4 µM.
Response line: Not fulfilled

Prompt line: Dear reviewer, please state whether CC1(C)[C@@H](O)CC[C@]2(C)[C@H]3C(=O)C=C4[C@@H]5C[C@@](C)(C(=O)O)CC[C@]5(C)CC[C@@]4(C)[C@]3(C)CC[C@@H]12 has EC50 strictly beneath 4 µM.
Response line: Not fulfilled

Prompt line: Dear reviewer, please state whether CCOc1cc(/C=C/C(C)=O)ccc1OC(=O)[C@@]1(C)CC[C@]2(C)CC[C@]3(C)C(=CC(=O)[C@@H]4[C@@]5(C)CC[C@H](O)C(C)(C)[C@@H]5CC[C@]43C)[C@@H]2C1 has EC50 strictly beneath 4 µM.
Response line: Not fulfilled

Prompt line: Dear reviewer, please state whether COc1cccc(/C=C/C(C)=O)c1OC(=O)[C@@]1(C)CC[C@]2(C)CC[C@]3(C)C(=CC(=O)[C@@H]4[C@@]5(C)CC[C@H](O)C(C)(C)[C@@H]5CC[C@]43C)[C@@H]2C1 has EC50 strictly beneath 4 µM.
Response line: Fulfilled

Prompt line: Dear reviewer, please state whether COc1ccc(/C=C/C(C)=O)cc1OC(=O)[C@@]1(C)CC[C@]2(C)CC[C@]3(C)C(=CC(=O)[C@@H]4[C@@]5(C)CC[C@H](O)C(C)(C)[C@@H]5CC[C@]43C)[C@@H]2C1 has EC50 strictly beneath 4 µM.
Response line: Not fulfilled

Prompt line: Dear reviewer, please state whether COc1cc(/C=C/C(=O)c2ccccc2)ccc1OC(=O)[C@@]1(C)CC[C@]2(C)CC[C@]3(C)C(=CC(=O)[C@@H]4[C@@]5(C)CC[C@H](O)C(C)(C)[C@@H]5CC[C@]43C)[C@@H]2C1 has EC50 strictly beneath 4 µM.
Response line: Not fulfilled

Prompt line: Dear reviewer, please state whether COc1cccc2c1C(=O)c1c(O)c3c(c(O)c1C2=O)C[C@@](O)(C(=O)CO)C[C@@H]3O[C@H]1C[C@H](N)[C@H](O)[C@H](C)O1 has EC50 strictly beneath 4 µM.
Response line: Fulfilled

Prompt line: Dear reviewer, please state whether CCOc1cccc(/C=C/C(C)=O)c1OC(=O)[C@@]1(C)CC[C@]2(C)CC[C@]3(C)C(=CC(=O)[C@@H]4[C@@]5(C)CC[C@H](O)C(C)(C)[C@@H]5CC[C@]43C)[C@@H]2C1 has EC50 strictly beneath 4 µM.
Response line: Not fulfilled
